// apparent KD of MS2 coat protein lookup, one value per entry
Tested on: MS2 coat protein
Assay: apparent KD of MS2 coat protein; higher = weaker reporter binding
Conditions: Eterna round: R107; input ligand: arginine 13.2 mM
Reported property: apparent KD of MS2 coat protein (nM)

INSERT INTO results (seq_string, result) VALUES
  ('ACAUGAGGAUCACCCAUGUAUUACCGGGAAGGAGCGGCCGCAAGGCCAGGUAGGUCGCUCGGUGUCGUGCUGUAAAGCACGACAA [#1 Same State - Arginine A Attempt #29 (HarryS)]', 11.9),
  ('CAGCAACAAUUGGAUACCAGCCAUUACAGGUAUCAUUAUAACAUGAGGAUCACCCAUGUAGGCCCUUGGCAGCCAUUGGUGUAAG [theeternabot_exclusion_MS2_Theo_B_22]', 27.5),
  ('AAAAUAAAUAAAACGGGUAACAUGAAGGAUACCAGCCAGGAAACUGGCCCUUGGCAGCCUCUACAUGAGGAUCACCCAUGUCCCG [Mat - Same State Theophlline A - Mod of Eli - D14]', 169),
  ('AGAUGACACAGUGGAUAGCAAGAUGCCGAUACCAGCUAGGAAACUAGCCCUUGGCAGCGGUACAUGAGGAUCACCCAUGUAUCCU [EThA NP+V+V2 #10]', 12.4),
  ('UUGUAUAUGCGAAGGAGCGGGAAAUAUAUAUAUAUAAUCCUAACAUGAGGAUCACCCAUGUCCCAGGUAGGUCGCGCAUAUAUGG [12.F]', 80.5);

====

Reported apparent KD of MS2 coat protein by item:
Tested on: MS2 coat protein
Assay: apparent KD of MS2 coat protein; higher = weaker reporter binding
Details: Eterna round: R107; input ligand: theophylline 2 mM
Reported property: apparent KD of MS2 coat protein

INSERT INTO results (seq_string, result) VALUES
  ('ACCUGUACGAAAAGUGCAGGACACGGAAUACGAGGACCGGUACGGCCGCCACUCGGAAAACCUGAGGAUCACCCUGGUAACCGUG [TrypAS 11 #AlternativeMS2 #Zipper #StaticStem]', '25 nM'),
  ('GAGGCACGGUCGGCCGCCACUACAGCAGUGGUCCGCCAAGCGAGGUACAUGAGGAUCACCCAUGUUAGGACCGGGACCUGUUUUU [theeternabot_exclusion_MS2_Trp_B_27]', '25.5 nM'),
  ('GGUCGCCUACAUGGGUAGGCGAUUUUGGAAGGAGCGAGCGAGAGCUCAGGUAGGUCGCCAGCACAUGAGGAUCACCCAUGUUUUU [SSArg-A #25 Weakened 1st state]', '21.8 nM'),
  ('UGUAUGUGAUCUGAUACCAGUCCAACUGGUAAAAUAUGAGGAUCACCCAUAUAAAAUUGGGACCCUUGGCAGCAGAUCGCAUACU', '129 nM'),
  ('GCUAGGUCUACGGCCGCCACUAGACGUGGGUAAGACAUGAGGAUCACCCAUGUACUACGGGCGAUUAGGACCGGGUAGACCUAGC [SSTB NP+V+V2 #16 Same Structure]', '646 nM');

====

System: MS2 coat protein
Experiment: apparent KD of MS2 coat protein; designed switch direction (-1 OFF switch, 1 ON switch): -1; higher = weaker reporter binding
Conditions: input ligand: FMN 200 uM
Listing: apparent KD of MS2 coat protein of selected sequences
Reported property: apparent KD of MS2 coat protein (nM)

INSERT INTO results (seq_string, display_unit, result) VALUES
  ('CCGGAACAUGAGGAUCACCCAUGUCAGGAUAUCCCUAAAUCGUCGAUAGACGAUAAAAGGAGAAGGGACACCGG [Mat - Exclusion 1 - Eli Mod - D26] (Eterna round: R97, puzzle: Exclusion 1)', 'nM', 19.3),
  ('CCAUCUCUAGUAGGAUAUGUCGGAUAUGUUGUUGAGGUUCACCCAACGACGUCAAUGACAGAAGGACAGAAGGACUCUCGAUGC [pwkr exNG2 2xFMN 1xF5.6] (Eterna round: R96, puzzle: Exclusion NG 2)', 'nM', 114),
  ('CGUGACUCAGGAUAUCUAUAGUGUCACAUGAGGAUCACCCAUGUCCAGCGAAAGCUGGAGGGAGAAGGGAGUCACG [Fiskers Ex 5 - 43] (Eterna round: R96, puzzle: Exclusion 5)', 'nM', 43.1),
  ('CCUCUACAUGAGGAUCACCCAUGUGAGGAUAUCCUGCGAGGAUCAAAAGAUCCUCGUGGGAGAAGGCAUAUGAU [Omei Ex1 A3] (Eterna round: R97, puzzle: Exclusion 1)', 'nM', 36.5),
  ('ACAUGUCAUCGAGGAUAUUGCACACAUGAGGAUCACCCAUGUAUACGGUUGCUCUUGCGUGAGUUCGAGAAGGCGAUGUACAUU [Ex NG2 #86] (Eterna round: R96, puzzle: Exclusion NG 2)', 'nM', 109);
